Target: PI3Kβ (Homo sapiens)
Sequence (P42338 whole entry): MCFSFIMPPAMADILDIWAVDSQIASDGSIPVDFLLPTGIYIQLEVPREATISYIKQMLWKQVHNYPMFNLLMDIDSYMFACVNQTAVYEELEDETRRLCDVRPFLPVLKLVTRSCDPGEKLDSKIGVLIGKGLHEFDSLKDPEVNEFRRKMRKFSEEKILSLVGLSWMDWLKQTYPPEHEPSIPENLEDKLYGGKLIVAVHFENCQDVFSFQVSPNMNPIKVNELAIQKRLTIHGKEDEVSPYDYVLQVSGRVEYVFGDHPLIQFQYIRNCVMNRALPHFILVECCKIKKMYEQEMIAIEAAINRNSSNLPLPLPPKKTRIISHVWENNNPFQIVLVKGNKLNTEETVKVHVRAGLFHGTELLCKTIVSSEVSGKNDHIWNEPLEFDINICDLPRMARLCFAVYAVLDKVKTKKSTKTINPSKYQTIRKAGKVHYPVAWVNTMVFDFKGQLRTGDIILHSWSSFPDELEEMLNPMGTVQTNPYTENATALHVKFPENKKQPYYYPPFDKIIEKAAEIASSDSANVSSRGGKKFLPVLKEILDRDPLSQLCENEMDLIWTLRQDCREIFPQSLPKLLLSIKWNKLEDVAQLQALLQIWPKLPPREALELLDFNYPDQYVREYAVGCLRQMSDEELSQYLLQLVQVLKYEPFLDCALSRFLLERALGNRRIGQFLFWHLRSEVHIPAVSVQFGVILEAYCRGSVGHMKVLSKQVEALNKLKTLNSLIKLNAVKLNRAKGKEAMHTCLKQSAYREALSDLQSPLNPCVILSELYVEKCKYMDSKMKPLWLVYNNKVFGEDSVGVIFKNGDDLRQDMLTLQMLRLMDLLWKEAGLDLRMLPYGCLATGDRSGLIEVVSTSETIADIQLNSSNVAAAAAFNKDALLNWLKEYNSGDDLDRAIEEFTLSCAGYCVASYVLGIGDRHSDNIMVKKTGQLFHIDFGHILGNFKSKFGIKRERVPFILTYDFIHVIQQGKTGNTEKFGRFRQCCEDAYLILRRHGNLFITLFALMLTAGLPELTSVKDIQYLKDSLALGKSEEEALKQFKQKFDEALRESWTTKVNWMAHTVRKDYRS
Sequence (P27986 whole entry partner): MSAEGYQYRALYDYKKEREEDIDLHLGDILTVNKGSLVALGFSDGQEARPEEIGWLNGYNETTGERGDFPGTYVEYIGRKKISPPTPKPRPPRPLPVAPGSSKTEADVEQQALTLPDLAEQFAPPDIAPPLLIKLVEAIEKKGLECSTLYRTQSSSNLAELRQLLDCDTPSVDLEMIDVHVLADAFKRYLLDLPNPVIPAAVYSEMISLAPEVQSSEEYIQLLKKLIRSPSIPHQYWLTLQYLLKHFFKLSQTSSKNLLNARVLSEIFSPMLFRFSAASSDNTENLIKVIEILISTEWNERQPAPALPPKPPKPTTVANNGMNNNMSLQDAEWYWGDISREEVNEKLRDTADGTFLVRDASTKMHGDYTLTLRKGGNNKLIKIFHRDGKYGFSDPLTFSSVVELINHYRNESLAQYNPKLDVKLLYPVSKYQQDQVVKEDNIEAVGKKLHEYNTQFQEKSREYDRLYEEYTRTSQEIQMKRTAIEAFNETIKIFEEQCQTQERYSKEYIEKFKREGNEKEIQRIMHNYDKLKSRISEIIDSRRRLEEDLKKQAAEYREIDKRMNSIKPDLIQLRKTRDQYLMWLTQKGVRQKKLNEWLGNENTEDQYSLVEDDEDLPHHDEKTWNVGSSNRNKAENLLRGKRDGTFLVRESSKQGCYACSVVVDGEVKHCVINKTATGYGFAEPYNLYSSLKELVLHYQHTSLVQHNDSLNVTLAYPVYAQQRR
Assay: In vitro determination of the PI3K enzyme inhibitory activity in the cell free assay (ADP-Glo Kinase Assay), PI3Kβ
Conditions: ATP 100 μM, read-out: PI3K beta inhibition
pIC50: −log10 of the molar value.
measuredParameter: pIC50

For orientation, consider the following solved cases.
{"compound": "CC(c1cc2ccccn2c1-c1ccccn1)n1nc(-c2cccc(NS(C)(=O)=O)c2)c2c(N)ncnc21 (stereo not drawn)", "measuredParameter": "pIC50", "result": "< 6.00"}
{"compound": "CC(Nc1ncnc(N)c1C#N)c1cc2c(F)cccn2c1-c1ccccn1 (stereo not drawn)", "measuredParameter": "pIC50", "result": "6.00 to 8.00"}
{"compound": "Nc1ncnc2c1ncn2Cc1cc2ccccn2c1-c1ccccn1", "measuredParameter": "pIC50", "result": "< 6.00"}
{"compound": "CC(c1cc2ccccn2c1-c1ccccn1)n1nc(-c2cc(N)cc(F)c2)c2c(N)ncnc21 (stereo not drawn)", "measuredParameter": "pIC50", "result": "6.00 to 8.00"}
{"compound": "N#Cc1c(N)ncnc1NCc1cc2ccccn2c1-c1ccccc1F", "measuredParameter": "pIC50", "result": "< 6.00"}
{"compound": "CC(c1cc2ccccn2c1-c1ccccn1)n1nc(-c2cccc(F)c2)c2c(N)ncnc21 (stereo not drawn)", "measuredParameter": "pIC50", "result": "6.00 to 8.00"}
{"compound": "CC(c1cc2ccccn2c1-c1ccc(CN(C)C)cn1)n1nc(-c2cc(O)cc(F)c2)c2c(N)ncnc21 (stereo not drawn)", "measuredParameter": "pIC50", "result": "6.00 to 8.00"}
{"compound": "Cc1cccn2c(-c3ccccn3)c(C(C)Nc3ncnc(N)c3C#N)cc12 (stereo not drawn)", "measuredParameter": "pIC50", "result": "< 6.00"}

[Q] Tell me the measured pIC50 of C[C@H](c1cc2ccccn2c1-c1ccc(CN2CCOCC2)cn1)n1nc(-c2cc(O)cc(F)c2)c2c(N)ncnc21 (single isomer, unassigned) [Example 108a] , please.
[A] 6.00 to 8.00

[Q] Tell me the measured pIC50 of "c1ccc(-c2c(CNc3ncnc4[nH]cnc34)cn3ccccc23)cc1" , please.
[A] < 6.00

[Q] Tell me the measured pIC50 of CC(c1cc2ccccn2c1-c1ccc(CN2CCOCC2)s1)n1nc(-c2cc(O)cc(F)c2)c2c(N)ncnc21 (stereo not drawn) , please.
[A] 6.00 to 8.00

[Q] Tell me the measured pIC50 of CC(c1cc2ccccn2c1-c1ccccn1)n1nc(-c2cc(F)cc(S(N)(=O)=O)c2)c2c(N)ncnc21 (stereo not drawn) , please.
[A] < 6.00

[Q] Tell me the measured pIC50 of "N#Cc1c(N)ncnc1NCc1cn2ccccc2c1-c1ccccn1" , please.
[A] < 6.00

[Q] Tell me the measured pIC50 of "Nc1ncnc2c1ncn2Cc1cn2ccccc2c1-c1cccc(F)c1" , please.
[A] < 6.00

---

Target: PI3Kγ (Homo sapiens, UniProt P48736)
Sequence (P48736 whole entry): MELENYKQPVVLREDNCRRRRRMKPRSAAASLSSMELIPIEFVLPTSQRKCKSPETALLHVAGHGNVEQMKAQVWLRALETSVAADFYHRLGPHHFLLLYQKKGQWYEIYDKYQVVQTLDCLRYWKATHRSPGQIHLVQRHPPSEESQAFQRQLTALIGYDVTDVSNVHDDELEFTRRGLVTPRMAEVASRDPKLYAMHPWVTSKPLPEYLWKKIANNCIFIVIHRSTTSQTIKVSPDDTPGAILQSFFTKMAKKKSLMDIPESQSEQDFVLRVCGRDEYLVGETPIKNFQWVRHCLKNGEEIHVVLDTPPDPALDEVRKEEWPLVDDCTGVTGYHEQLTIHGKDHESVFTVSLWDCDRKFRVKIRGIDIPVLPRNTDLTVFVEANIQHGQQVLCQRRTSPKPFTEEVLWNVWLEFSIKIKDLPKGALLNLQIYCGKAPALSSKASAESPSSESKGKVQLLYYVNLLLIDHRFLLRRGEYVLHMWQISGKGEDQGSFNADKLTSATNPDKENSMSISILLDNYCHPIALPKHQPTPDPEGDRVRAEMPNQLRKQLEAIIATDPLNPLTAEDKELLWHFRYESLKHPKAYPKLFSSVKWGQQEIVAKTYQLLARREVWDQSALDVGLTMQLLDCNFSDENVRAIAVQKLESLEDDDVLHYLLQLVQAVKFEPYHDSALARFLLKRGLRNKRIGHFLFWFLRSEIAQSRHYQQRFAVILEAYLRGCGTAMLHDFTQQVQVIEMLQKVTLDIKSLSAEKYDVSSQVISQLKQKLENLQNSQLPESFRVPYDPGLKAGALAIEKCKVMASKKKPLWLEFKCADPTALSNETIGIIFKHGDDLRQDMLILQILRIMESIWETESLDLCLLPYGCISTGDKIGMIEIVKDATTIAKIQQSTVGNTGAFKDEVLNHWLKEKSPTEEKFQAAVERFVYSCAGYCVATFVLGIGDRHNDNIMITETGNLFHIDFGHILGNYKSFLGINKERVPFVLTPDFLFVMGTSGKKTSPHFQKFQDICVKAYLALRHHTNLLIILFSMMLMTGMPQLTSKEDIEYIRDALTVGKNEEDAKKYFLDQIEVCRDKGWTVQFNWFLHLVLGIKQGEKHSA
Assay: In vitro determination of the PI3K enzyme inhibitory activity in the cell free assay (ADP-Glo Kinase Assay), PI3Kγ
Conditions: ATP 30 μM, read-out: PI3K gamma inhibition
pIC50: −log10 of the molar value.
measuredParameter: pIC50

For orientation, consider the following solved cases.
{"compound": "Nc1ncnc2c1c(-c1cc(O)cc(F)c1)nn2Cc1cc2ccccn2c1-c1cccnc1 [Example 98]", "pIC50": "6.00 to 8.00"}
{"compound": "CC(c1cc2ccccn2c1-c1cscn1)n1nc(-c2cc(O)cc(F)c2)c2c(N)ncnc21 (centres unmarked) [Example 129]", "pIC50": "6.00 to 8.00"}
{"compound": "Nc1ncnc2c1ncn2Cc1cn2ccccc2c1-c1cccc(F)c1 [Example 11]", "pIC50": "< 6.00"}
{"compound": "CC(Nc1ncnc(N)c1/C=N/O)c1cc2ccccn2c1-c1ccccn1 (centres unmarked) [Example 58]", "pIC50": "< 6.00"}
{"compound": "CC(c1cc2ccccn2c1C1=CCNCC1)n1nc(-c2cc(O)cc(F)c2)c2c(N)ncnc21 (centres unmarked) [Example 101]", "pIC50": "< 6.00"}

[Q] Hello, I am looking for reported pIC50 with PI3Kγ (Homo sapiens, UniProt P48736) for CC(c1cc2ccccn2c1-c1cc(CN(C)C)ccn1)n1nc(-c2cc(O)cc(F)c2)c2c(N)ncnc21 (centres unmarked) [Example 112] . Could you help?
[A] 6.00 to 8.00

[Q] Hello, I am looking for reported pIC50 with PI3Kγ (Homo sapiens, UniProt P48736) for CC(c1cc2ccccn2c1N1CCN(C)CC1=O)n1nc(-c2cc(O)cc(F)c2)c2c(N)ncnc21 (centres unmarked) [Example 132] . Could you help?
[A] 6.00 to 8.00

[Q] Hello, I am looking for reported pIC50 with PI3Kγ (Homo sapiens, UniProt P48736) for CC(c1cc2ccccn2c1CN1CCOCC1)n1nc(-c2cc(O)cc(F)c2)c2c(N)ncnc21 (centres unmarked) [Example 141] . Could you help?
[A] 6.00 to 8.00

---

Target: UniProt:O00329
Sequence (O00329 whole entry): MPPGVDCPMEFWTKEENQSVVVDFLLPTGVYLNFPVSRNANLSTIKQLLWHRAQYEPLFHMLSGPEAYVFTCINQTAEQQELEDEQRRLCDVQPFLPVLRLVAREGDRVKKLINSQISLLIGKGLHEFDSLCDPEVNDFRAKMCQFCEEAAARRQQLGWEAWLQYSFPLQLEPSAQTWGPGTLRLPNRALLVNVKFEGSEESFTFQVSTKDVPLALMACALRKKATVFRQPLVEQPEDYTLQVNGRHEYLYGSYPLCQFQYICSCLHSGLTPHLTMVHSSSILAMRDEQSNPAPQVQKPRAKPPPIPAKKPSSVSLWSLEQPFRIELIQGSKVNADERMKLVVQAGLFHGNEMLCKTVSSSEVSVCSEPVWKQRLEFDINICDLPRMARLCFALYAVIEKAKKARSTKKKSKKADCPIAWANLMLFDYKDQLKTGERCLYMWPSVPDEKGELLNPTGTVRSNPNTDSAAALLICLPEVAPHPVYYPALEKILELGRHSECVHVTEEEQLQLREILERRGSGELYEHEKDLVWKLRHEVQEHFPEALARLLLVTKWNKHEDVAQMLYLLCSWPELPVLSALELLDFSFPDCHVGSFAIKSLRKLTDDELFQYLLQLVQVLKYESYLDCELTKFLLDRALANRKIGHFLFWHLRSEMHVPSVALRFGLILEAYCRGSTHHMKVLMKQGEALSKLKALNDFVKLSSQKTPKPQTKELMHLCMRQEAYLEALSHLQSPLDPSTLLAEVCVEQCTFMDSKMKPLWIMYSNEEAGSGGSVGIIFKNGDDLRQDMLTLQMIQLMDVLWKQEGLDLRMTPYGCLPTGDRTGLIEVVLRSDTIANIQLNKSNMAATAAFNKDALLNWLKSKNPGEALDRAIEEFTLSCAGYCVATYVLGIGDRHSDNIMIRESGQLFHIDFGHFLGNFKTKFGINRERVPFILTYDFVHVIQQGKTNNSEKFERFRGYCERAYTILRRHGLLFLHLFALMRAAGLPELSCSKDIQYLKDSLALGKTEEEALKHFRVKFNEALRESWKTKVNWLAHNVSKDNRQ
Sequence (P27986 whole entry partner): as the sequence (P27986 whole entry partner) above
Test: In vitro determination of the PI3K enzyme inhibitory activity in the cell free assay (ADP-Glo Kinase Assay), PI3Kδ
Conditions: ATP 80 μM, read-out: PI3K delta inhibition
Where a name gives a salt, the structure may show the parent alone.
measuredParameter: IC50

{"compound": "CC(Nc1ncnc(N)c1CN1CCOCC1)c1cc2ccccn2c1-c1ccccn1 (centres unmarked)", "testedSystem": "UniProt:O00329", "IC50": "> 1000 nM"}
{"compound": "CNC(=O)c1c(N)ncnc1NC(C)c1cc2ccccn2c1-c1ccccn1 (centres unmarked)", "testedSystem": "UniProt:O00329", "IC50": "10 to 1000 nM"}
{"compound": "CC(Nc1ncnc(N)c1C(=O)O)c1cc2ccccn2c1-c1ccccn1 (centres unmarked) [Example 53, formate]", "testedSystem": "UniProt:O00329", "IC50": "> 1000 nM"}
{"compound": "Cc1ccc2cc(C(C)n3nc(-c4cc(O)cc(F)c4)c4c(N)ncnc43)c(-c3ccccn3)n2c1 (centres unmarked)", "testedSystem": "UniProt:O00329", "IC50": "10 to 1000 nM"}
{"compound": "CC(c1cc2ccccn2c1CN1C[C@H]2CN(C)C[C@H]2C1)n1nc(-c2cc(O)cc(F)c2)c2c(N)ncnc21 (some centres unmarked)", "testedSystem": "UniProt:O00329", "IC50": "10 to 1000 nM"}
{"compound": "CC(Nc1ncnc(N)c1C#N)c1cc2ccccn2c1-c1ccccn1 (centres unmarked)", "testedSystem": "UniProt:O00329", "IC50": "10 to 1000 nM"}

[Q] Tell me the measured IC50 of CC(c1cc2ccccn2c1-c1cc(CN(C)C)ccn1)n1nc(-c2cc(O)cc(F)c2)c2c(N)ncnc21 (centres unmarked) , please.
[A] < 10 nM

[Q] Tell me the measured IC50 of CC(c1cc2ccccn2c1CN1CC2(CCN(C)CC2)C1)n1nc(-c2cc(O)cc(F)c2)c2c(N)ncnc21 (centres unmarked) , please.
[A] 10 to 1000 nM

[Q] Tell me the measured IC50 of "Cc1ccccc1-c1c(CNc2ncnc3[nH]cnc23)cn2ccccc12" , please.
[A] > 1000 nM

[Q] Tell me the measured IC50 of "N#Cc1c(N)ncnc1NCc1cc2ccccn2c1-c1ccccc1F" , please.
[A] 10 to 1000 nM

[Q] Tell me the measured IC50 of CC(c1cc2ccccn2c1-c1ccc(CN(C)C)cn1)n1nc(-c2cc(O)cc(F)c2)c2c(N)ncnc21 (centres unmarked) , please.
[A] 10 to 1000 nM

[Q] Tell me the measured IC50 of CC(c1cc2ccc(C(F)(F)F)cn2c1-c1ccccn1)n1nc(-c2cc(O)cc(F)c2)c2c(N)ncnc21 (centres unmarked) , please.
[A] 10 to 1000 nM

[Q] Tell me the measured IC50 of CC(Nc1ncnc(N)c1C#N)c1cc2ccccn2c1C#CCO (centres unmarked) , please.
[A] 10 to 1000 nM

[Q] Tell me the measured IC50 of "Nc1ncnc2c1c(-c1cc(O)cc(F)c1)nn2Cc1cc2cccnn2c1-c1ccccn1" , please.
[A] < 10 nM

[Q] Tell me the measured IC50 of "c1ccn2cc(CNc3ncnc4[nH]cnc34)cc2c1" , please.
[A] 10 to 1000 nM

[Q] Tell me the measured IC50 of CC(c1cc2ccccn2c1-c1ccn(CCN(C)C)c(=O)c1)n1nc(-c2cc(O)cc(F)c2)c2c(N)ncnc21 (centres unmarked) [Example 133] , please.
[A] < 10 nM

[Q] Tell me the measured IC50 of CC(c1cc2ccccn2c1N1CCCC1=O)n1nc(-c2cc(O)cc(F)c2)c2c(N)ncnc21 (centres unmarked) , please.
[A] < 10 nM

[Q] Tell me the measured IC50 of CC(c1cc2ccccn2c1-c1cccc(CN2CCOCC2)n1)n1nc(-c2cc(O)cc(F)c2)c2c(N)ncnc21 (centres unmarked) , please.
[A] < 10 nM

[Q] Tell me the measured IC50 of CC(c1cc2ccccn2c1-c1ccc(CN2CCOCC2)s1)n1nc(-c2cc(O)cc(F)c2)c2c(N)ncnc21 (centres unmarked) , please.
[A] < 10 nM

[Q] Tell me the measured IC50 of "Nc1ncnc2c1ncn2Cc1cc2ccccn2c1-c1ccccn1" , please.
[A] > 1000 nM

[Q] Tell me the measured IC50 of "Nc1ncnc2c1ncn2Cc1cc2ccccn2c1-c1cccc(F)c1" , please.
[A] 10 to 1000 nM

[Q] Tell me the measured IC50 of CCCC#Cc1c(C(C)Nc2ncnc(N)c2C#N)cc2ccccn12 (centres unmarked) , please.
[A] 10 to 1000 nM

[Q] Tell me the measured IC50 of "Nc1ncn(Cc2cc3ccccn3c2-c2cccc(F)c2)c2ncnc1-2" , please.
[A] > 1000 nM

[Q] Tell me the measured IC50 of "Fc1cccc(-c2c(CNc3ncnc4[nH]cnc34)cn3ccccc23)c1" , please.
[A] 10 to 1000 nM

[Q] Tell me the measured IC50 of CC(Nc1ncnc(N)c1/C=N/O)c1cc2ccccn2c1-c1ccccn1 (centres unmarked) , please.
[A] < 10 nM

[Q] Tell me the measured IC50 of C[C@@H](c1cc2ccccn2c1-c1ccncc1)n1nc(-c2cc(O)cc(F)c2)c2c(N)ncnc21 (single isomer, unassigned) [Example 83] , please.
[A] < 10 nM

[Q] Tell me the measured IC50 of CC(c1cc2ccccn2c1CN1CCOCC1)n1nc(-c2cc(O)cc(F)c2)c2c(N)ncnc21 (centres unmarked) , please.
[A] < 10 nM
